The reported numbers originate from patent US11053234B2.

Measured IC50, listed per entry for reference.
# Tested On: haematopoietic prostaglandin D synthase (H-PGDS) (Homo sapiens, UniProt O60760)
# Construct: Full length human H-PGDS cDNA (Invitrogen Ultimate ORF 10H13026) was amplified by PCR; 6-His (N); TEV protease cleavage site (N); made in house; host or cells: E. coli BL21 (DE3*), vector pET22b+
# Sequence (O60760 whole entry): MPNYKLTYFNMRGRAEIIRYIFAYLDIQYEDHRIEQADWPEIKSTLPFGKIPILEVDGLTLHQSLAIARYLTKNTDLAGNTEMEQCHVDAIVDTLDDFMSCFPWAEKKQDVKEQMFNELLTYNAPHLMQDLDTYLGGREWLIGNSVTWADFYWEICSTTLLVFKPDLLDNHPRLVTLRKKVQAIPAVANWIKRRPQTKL
# Method Summary: H-PGDS RapidFire high throughput mass spectrometry assay (conversion of PGH2 to PGD2)
# Assay type: biochemical
# Condition Info: 10 nM H-PGDS, PGH2 formed in situ by COX-2 from arachidonic acid; read-out: Potency Range (mean pIC50) (converted)
Counter-ions that a name gives are not always drawn.
Result Type: IC50

Compound	Tested On	Result Type	Value
N#Cc1cnc(NC(=O)[C@H]2C[C@H](Oc3cccc4cccnc34)C2)s1	haematopoietic prostaglandin D synthase (H-PGDS) (Homo sapiens, UniProt O60760)	IC50	10 to 79.4 nM
CC(C)(O)[C@H]1CC[C@H](NC(=O)N2CC(Oc3csc4cccnc34)C2)CC1	haematopoietic prostaglandin D synthase (H-PGDS) (Homo sapiens, UniProt O60760)	IC50	10 to 79.4 nM
CN(C)C(=O)c1csc(NC(=O)[C@H]2C[C@H](Oc3cccc4cccnc34)C2)n1 [Example 197, trifluoroacetic acid salt]	haematopoietic prostaglandin D synthase (H-PGDS) (Homo sapiens, UniProt O60760)	IC50	< 10 nM
Cc1csc(NC(=O)[C@H]2C[C@H](Oc3cccc4cccnc34)C2)n1	haematopoietic prostaglandin D synthase (H-PGDS) (Homo sapiens, UniProt O60760)	IC50	10 to 79.4 nM
CC(N[C@H]1CC[C@H](NC(=O)[C@H]2C[C@H](Oc3cccc4scnc34)C2)CC1)C(F)F (mixture of isomers)	haematopoietic prostaglandin D synthase (H-PGDS) (Homo sapiens, UniProt O60760)	IC50	10 to 79.4 nM
Cc1cccc(NC(=O)[C@H]2C[C@H](Oc3cccc4cccnc34)C2)n1	haematopoietic prostaglandin D synthase (H-PGDS) (Homo sapiens, UniProt O60760)	IC50	10 to 79.4 nM
Cc1cnc(N2CC(NC(=O)[C@H]3C[C@H](Oc4cccc5scnc45)C3)C2)nc1	haematopoietic prostaglandin D synthase (H-PGDS) (Homo sapiens, UniProt O60760)	IC50	10 to 79.4 nM
O=C(NC1CN(c2ccccn2)C1)N1CC(Oc2cccc3scnc23)C1	haematopoietic prostaglandin D synthase (H-PGDS) (Homo sapiens, UniProt O60760)	IC50	10 to 79.4 nM
CC(C)(O)[C@H]1CC[C@H](NC(=O)[C@H]2C[C@H](Oc3cc(F)cc4scnc34)C2)CC1	haematopoietic prostaglandin D synthase (H-PGDS) (Homo sapiens, UniProt O60760)	IC50	10 to 79.4 nM
CC(C)c1nnc(NC(=O)N2CC(Oc3cccc4scnc34)C2)o1	haematopoietic prostaglandin D synthase (H-PGDS) (Homo sapiens, UniProt O60760)	IC50	100 to 1000 nM
CC(C)(O)Cc1cnc(NC(=O)[C@H]2C[C@H](Oc3cccc4cccnc34)C2)s1	haematopoietic prostaglandin D synthase (H-PGDS) (Homo sapiens, UniProt O60760)	IC50	10 to 79.4 nM
O=C(Nc1nc(C(F)(F)F)cs1)[C@H]1C[C@H](Oc2cccc3cccnc23)C1	haematopoietic prostaglandin D synthase (H-PGDS) (Homo sapiens, UniProt O60760)	IC50	10 to 79.4 nM
O=C(N[C@H]1CC[C@H](Nc2ncccn2)CC1)[C@H]1C[C@H](Oc2cc(F)ccc2OC(F)F)C1	haematopoietic prostaglandin D synthase (H-PGDS) (Homo sapiens, UniProt O60760)	IC50	10 to 79.4 nM
COC(=O)c1coc(N2CC(NC(=O)[C@H]3C[C@H](Oc4cccc5scnc45)C3)C2)n1	haematopoietic prostaglandin D synthase (H-PGDS) (Homo sapiens, UniProt O60760)	IC50	100 to 1000 nM
